koff values by entry
molecular target: Feline_OSMR_hlgG1_Fc (feline); experiment: SPR Biacore
Sequence (chain, as listed by the source limits assumed, form in doubt): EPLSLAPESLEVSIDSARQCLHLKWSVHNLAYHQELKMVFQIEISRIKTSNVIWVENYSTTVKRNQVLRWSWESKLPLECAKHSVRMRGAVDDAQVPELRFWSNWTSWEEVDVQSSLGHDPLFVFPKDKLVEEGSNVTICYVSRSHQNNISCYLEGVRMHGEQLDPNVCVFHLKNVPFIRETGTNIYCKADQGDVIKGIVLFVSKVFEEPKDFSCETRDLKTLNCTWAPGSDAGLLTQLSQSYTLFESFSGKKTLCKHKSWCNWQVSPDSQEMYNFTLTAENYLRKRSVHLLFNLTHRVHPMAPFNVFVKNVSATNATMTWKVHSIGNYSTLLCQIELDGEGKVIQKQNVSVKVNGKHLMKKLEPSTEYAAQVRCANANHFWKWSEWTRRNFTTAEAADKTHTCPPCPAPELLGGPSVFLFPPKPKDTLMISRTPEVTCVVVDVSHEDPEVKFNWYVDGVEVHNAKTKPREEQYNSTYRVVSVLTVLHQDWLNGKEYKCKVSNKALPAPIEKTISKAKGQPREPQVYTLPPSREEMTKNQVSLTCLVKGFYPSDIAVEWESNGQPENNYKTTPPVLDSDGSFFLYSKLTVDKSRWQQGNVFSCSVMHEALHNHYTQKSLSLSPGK
Number only, in s⁻¹; omit the unit.

Some binders with known koff results, for comparison:
[
  {
    "Binder": "Mu_02D09_VH (SEQ ID NO: 31)_Y101A (antibody, V domains shown) VH: EVQLVESGGGLVKPGGSLTLSCAASGFTFSDYGMHWLRQAPEKGLEWVAYISSGSRAVFFADTVKGRFTISRDNAKNTLFLQMTSLRSDDTAMYYCARDRADGRGFAYWGQGTLVTVSA VL: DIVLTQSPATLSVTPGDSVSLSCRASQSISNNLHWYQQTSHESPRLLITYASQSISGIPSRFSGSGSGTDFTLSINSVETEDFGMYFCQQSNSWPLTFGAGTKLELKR",
    "koff / s⁻¹": 0.00194
  },
  {
    "Binder": "Mu_02D09_VH (SEQ ID NO: 31)_G33A (antibody, V domains shown) VH: EVQLVESGGGLVKPGGSLTLSCAASGFTFSDYAMHWLRQAPEKGLEWVAYISSGSRAVFFADTVKGRFTISRDNAKNTLFLQMTSLRSDDTAMYYCARDRYDGRGFAYWGQGTLVTVSA VL: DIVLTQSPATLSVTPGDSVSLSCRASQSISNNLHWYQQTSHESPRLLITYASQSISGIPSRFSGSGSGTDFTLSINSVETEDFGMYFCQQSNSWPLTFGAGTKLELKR",
    "koff / s⁻¹": 0.0014
  },
  {
    "Binder": "mouse: canine 10F07 chimera (antibody, V domains shown) VH: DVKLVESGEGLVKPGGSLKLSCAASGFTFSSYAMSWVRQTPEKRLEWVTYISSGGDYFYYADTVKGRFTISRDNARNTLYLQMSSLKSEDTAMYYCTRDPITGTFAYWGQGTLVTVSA VL: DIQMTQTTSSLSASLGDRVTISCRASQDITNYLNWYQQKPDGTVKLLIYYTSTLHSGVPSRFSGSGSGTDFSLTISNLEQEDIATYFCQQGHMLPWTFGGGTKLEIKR",
    "koff / s⁻¹": 0.000346
  },
  {
    "Binder": "Mu_10F07_VH (SEQ ID NO: 39)_D99A (antibody, V domains shown) VH: DVKLVESGEGLVKPGGSLKLSCAASGFTFSSYAMSWVRQTPEKRLEWVTYISSGGDYFYYADTVKGRFTISRDNARNTLYLQMSSLKSEDTAMYYCTRAPITGTFAYWGQGTLVTVSA VL: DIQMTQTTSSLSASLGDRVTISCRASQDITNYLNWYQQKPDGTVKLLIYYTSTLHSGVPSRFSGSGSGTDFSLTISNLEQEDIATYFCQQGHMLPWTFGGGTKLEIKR",
    "koff / s⁻¹": 0.000704
  }
]

Let us examine a further case.
Exercise: What value of koff has been recorded for this entry: Mu_10F07_VL (SEQ ID NO: 41)_L33A (antibody, V domains shown) VH: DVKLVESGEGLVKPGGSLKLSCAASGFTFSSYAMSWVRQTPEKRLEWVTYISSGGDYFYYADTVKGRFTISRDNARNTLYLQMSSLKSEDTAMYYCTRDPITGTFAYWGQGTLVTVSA VL: DIQMTQTTSSLSASLGDRVTISCRASQDITNYANWYQQKPDGTVKLLIYYTSTLHSGVPSRFSGSGSGTDFSLTISNLEQEDIATYFCQQGHMLPWTFGGGTKLEIKR
Key: 0.000274
